System: LLC-PK1
Test Protocol: Apparent permeability in LLC-PK1 cells expressing human MDR1
Assay type: ADME, cell-based, Sus scrofa
Condition Description: pig, llc-pk1
Outcome Measure: Papp (×10⁻⁶ cm/s)
Give just the numeric value; ×10⁻⁶ cm/s need not be written.

Request: Given the entry COC(=O)c1c(F)cccc1-c1ccc([C@@H](C)NC(=O)C2(NC(=O)C(F)(F)C(F)(F)F)CC2)c(F)c1 , what Papp was observed with LLC-PK1?
Response: 28

----------
Test Protocol: Clearance in rhesus monkey at 3 mg/kg, po and 1 mg/kg, iv
Type: ADME, organism-based, Macaca mulatta
Condition Description: in vivo
Here the recorded clearance is given for each entry.
Give just the numeric value; mL/min/kg need not be written.

Below are worked cases with known answers.
Cc1noc(-c2c(F)cccc2-c2ccc([C@@H](C)NC(=O)C3(NC(=O)C(F)(F)F)CC3)c(F)c2)n1 : 15
COC(=O)c1c(F)cccc1-c1ccc([C@@H](C)NC(=O)C2(NC(=O)C(F)(F)F)CC2)c(F)c1 : 28

Request: Record request: clearance value, item COC(=O)c1c(Cl)cccc1-c1ccc([C@@H](C)NC(=O)C2(NC(=O)C(F)(F)F)CC2)c(F)c1 [MK0686]
Response: 13

----------
Here the recorded Papp is given for each entry.
System: human MDR1 (P-gp)
Test Protocol: Apparent permeability in LLC-PK1 cells expressing human MDR1
Assay type: ADME, cell-based, Sus scrofa
Condition Description: pig, LLC-PK1
Give just the numeric value; ×10⁻⁶ cm/s need not be written.

Below are worked cases with known answers.
COC(=O)c1c(F)cccc1-c1ccc([C@@H](C)NC(=O)C2(NC(=O)C(F)(F)C(F)(F)F)CC2)c(F)c1 : 31
COC(=O)c1c(F)cccc1-c1ccc([C@@H](C)NC(=O)C2(NC(=O)CC(F)(F)F)CC2)c(F)c1 : 25
COC(=O)c1c(F)cccc1-c1ccc(CNC(=O)C2(NC(=O)C(F)(F)F)CC2)c(F)c1 : 23

Request: Record request: Papp value, item COC(=O)c1c(F)cccc1-c1ccc([C@@H](C)NC(=O)C2(NC(=O)C(F)(F)Cl)CC2)c(F)c1
Response: 34

Request: Record request: Papp value, item COC(=O)c1c(F)cccc1-c1ccc(CNC(=O)C2(NC(=O)C(Cl)Cl)CC2)c(F)c1
Response: 21

Request: Record request: Papp value, item COC(=O)c1c(F)cccc1-c1ccc(CNC(=O)C2(NC(C)=O)CC2)c(F)c1
Response: 24

Request: Record request: Papp value, item CCC(=O)c1c(Cl)cccc1-c1ccc([C@@H](C)NC(=O)C2(NC(=O)C(F)(F)F)CC2)c(F)c1
Response: 27

Request: Record request: Papp value, item COC(=O)c1c(F)cccc1-c1ccc(CNC(=O)C2(NC(=O)C(F)F)CC2)c(F)c1
Response: 33

----------
Test Protocol: Ratio of drug level in brain against plasma in African green monkey at 2 mg/kg, iv
Condition Description: read-out: BPR
Outcome Measure: Kp
Enter the number alone.

Request: Record request: Kp value, item COC(=O)c1c(Cl)cccc1-c1ccc([C@@H](C)NC(=O)C2(NC(=O)C(F)(F)F)CC2)c(F)c1
Response: 0.4

----------
Test Protocol: Clearance in Sprague-Dawley rat at 10 mg/kg, po and 2 mg/kg, iv
Type: ADME, organism-based
Condition Description: in vivo
Outcome Measure: clearance (mL/min/kg)
Give just the numeric value; mL/min/kg need not be written.

Below are worked cases with known answers.
COC(=O)c1c(F)cccc1-c1ccc([C@@H](C)NC(=O)C2(NC(=O)C(F)(F)F)CC2)c(F)c1 : 42
C[C@@H](NC(=O)C1(NC(=O)C(F)(F)F)CC1)c1ccc(-c2cccc(F)c2-c2nnn(C)n2)cc1F : 11
COC(=O)c1c(F)cccc1-c1ccc([C@@H](C)NC(=O)C2(NC(=O)CC(F)(F)F)CC2)c(F)c1 : 25
COC(=O)c1c(F)cccc1-c1ccc([C@@H](C)NC(=O)C2(NC(=O)C(F)(F)C(F)(F)F)CC2)c(F)c1 : 27
Cc1noc(-c2c(F)cccc2-c2ccc([C@@H](C)NC(=O)C3(NC(=O)C(F)(F)F)CC3)c(F)c2)n1 : 28

Request: Record request: clearance value, item COC(=O)c1c(Cl)cccc1-c1ccc([C@@H](C)NC(=O)C2(NC(=O)C(F)(F)F)CC2)c(F)c1 [MK0686]
Response: 40

Request: Record request: clearance value, item C[C@@H](NC(=O)C1(NC(=O)C(F)(F)F)CC1)c1ccc(-c2cccc(F)c2C(F)(F)F)cc1F
Response: 10

Request: Record request: clearance value, item C[C@@H](NC(=O)C1(NC(=O)C(F)(F)F)CC1)c1ccc(-c2cccc(Cl)c2-c2nnn(C)n2)cc1F
Response: 12

Request: Record request: clearance value, item CCOC(=O)c1c(Cl)cccc1-c1ccc([C@@H](C)NC(=O)C2(NC(=O)C(F)(F)F)CC2)c(F)c1
Response: 8.4
